# Tested on: SR leukemia
# TEST_DESCRIPTION: NCI-60 one-dose screen, 48 h
# MEASUREMENT_CONTEXT: 10 µM unless noted
This is part of a sample that, as a whole, favours compounds with a hit. Of some 83,000 tested, about 20% had one in any assay. Activity calls are given as the source filed them. How the source made its calls: active means growth percent below 10; inactive means the rest.
Response enum: class 1 for active, class 0 for inactive

See these solved cases before continuing.
MOLECULE | ASSAYED_SYSTEM | CATEGORY
O=C(N/N=C/c1ccc(-c2ccc(O)cc2)s1)c1[nH]c2ccc(Br)cc2c1-c1ccccc1 | SR leukemia | class 1
CC12CC[C@@H]3[C@]4(C)COC(c5cn[nH]c5-c5ccc(Cl)cc5)O[C@@H]4CC[C@@]3(C)[C@@H]1CC(C1=CCOC1=O)O2 (stereo partly specified) | SR leukemia | class 0
COc1cc2c(c(OC)c1OC)C(=O)CC(c1cccc(NC(=O)c3cc(NC(=O)[C@@H](N)CO)ccc3C)c1)O2 (stereo partly specified) | SR leukemia | class 0
COc1cc(C2CC(c3cc(OC)c(OC)c(OC)c3)=NN2C(C)=O)ccc1OCc1ccc(F)cc1 (stereo unspecified) | SR leukemia | class 0
Nc1cc2ccccc2c(=O)n1NC(=O)c1ccc(I)cc1 | SR leukemia | class 0
CC(=O)OC[C@@]1(C)C2CC[C@]3(C)C(CC=C4C5CC(C)(C)CC[C@]5(C(=O)Nc5ccc(C)cc5)CC[C@]43C)[C@@]2(C)C[C@@H](OC(C)=O)[C@@H]1OC(C)=O (stereo partly specified) | SR leukemia | class 0
Cc1cccc(-c2nc(Nc3cccc(S(N)(=O)=O)c3)c3ccccc3n2)c1 | SR leukemia | class 0
COc1ccc(Cc2nn(CC(=O)N/N=C/c3ccc(F)cc3)c(=O)c3c(C)noc23)cc1 | SR leukemia | class 0
COc1ccc2cc([C@H](C)C(=O)N/N=C/c3ccc(Br)cc3)ccc2c1 | SR leukemia | class 0
COc1cc2oc(-c3cccc(C(=O)Nc4ccc(Cl)cc4)c3)cc(=O)c2c(OCCNC(=O)[C@@H](N)CCC(=O)O)c1OC | SR leukemia | class 0

Kindly consider the entry below.
-- ask Which outcome was entered for the molecule CCCCCCCS(=O)(=O)N1CCCC(C(=O)Nc2nc3ccc(NC(=O)c4ccc(F)c(OC)c4F)cc3s2)C1 (stereo unspecified) in this test?
-- reply class 0
